assay: Toxicity against brine shrimp after 24 hr by brine shrimp lethality test; type: organism-based; conditions: artemia, in vivo
Record form. Attribute: LC50 at 24 h. Fill in for each entry.
Answer format: numeric, µM implied, no suffix.

I am curious: what LC50 at 24 h value has been reported for CCCCCCC/C=C/CC/C=C/[C@@H](O)[C@H](CO[C@@H]1O[C@H](CO)[C@@H](O)[C@H](O)[C@H]1O)NC(=O)[C@H](O)CCCCCCCCCCCCCCCCCCCC ? 170

I am curious: what LC50 at 24 h value has been reported for CCCCCCC/C=C/CC/C=C/[C@@H](O)[C@H](CO[C@@H]1O[C@H](CO)[C@@H](O)[C@H](O)[C@H]1O)NC(=O)[C@H](O)CCCCCCCCCCCCCCCCCCCCCC ? 200
